substrate: PET; test: Proxy for plastic degradation [HPLC-UV]; settings: pH 9; 30 °C; 24 h
# Proxy for plastic degradation listing for each entry below
Kindly answer with a numeric value in µM, unit omitted.

| protein | unitName | Proxy for plastic degradation |
| --- | --- | --- |
| unnamed (protein) MNFPRASRLMQAAVLGGLMAVSAAATAQTNPYARGPNPTAASLEASAGPFTVRSFTVSRPSGYGAGTVYYPTNAGGTVGAIAIVPGYTARQSSIKWWGPRLASHGFVVITIDTNSTLDQPESRSSQQMAALRQVASLNGTSSSPIYGKVDTARMGVMGWSMGGGGSLISAANNPSLKAAAPQAPWDSSTNFSSVTVPTLIFACENDSIAPVNSSALPIYDSMSRNAKQFLEINGGSHSCANSGNSNQALIGKKGVAWMKRFMDNDTRYSTFACENPNSTRVSDFRTANCS | µM | 10.8 |
| unnamed (protein) MNFPRASRLMQAAVLGGLMAVSAAATAQTNPYARGPNPTAASLEASAGPFTVRSFTVSRPSGYGAGTVYYPTNAGGTVGAIAIVPGYTARQSSIKWWGPRLASHGFVVITIDTNSTLDQPESRSSQQMAALRQVASLNGTSSSPIYGKVDTARMGVMGWSMGGGGSLISAANNPSLKAAAPQAPWHSSTNFSSVTVPTLIFACENDSIAPVNSSALPIYDSMSRNAKQFLEINGGSHSCANSGNSNQALIGKKGVAWMKRFMDNDTRYSTFACENPNSTRVSDFRTANCS | µM | 18.8 |
| unnamed (protein) MNFPRASRLMQAAVLGGLMAVSAAATAQTNPYARGPNPTAASLEASAGPFTVRSFTVSRPSGYGAGTVYYPTNAGGTVGAIAIVPGYTARQSSIKWWGPRLASHGFVVITIDTNSTLDQPESRSSQQMAALRQVASLNGTSSSPIYGKVDTARMGVMGWSMGGGGSLISAANNPSLKAAAAQAPWHSSTNFSSVTVPTLIFACENDSIAPVNSSALPIYDSMSRNAKQFLEINGGSHSCANSGNSNQALIGKKGVAWMKRFMDNDTRYSTFACENPNSTRVSDFRTANCS | µM | 10.6 |
| unnamed (protein) MNFPRASRLMQAAVLGGLMAVSAAATAQTNPYARGPNPTAASLEASAGPFTVRSFTVSRPSGYGAGTVYYPTNAGGTVGAIAIVPGYTARQSSIKWWGPRLASHGFVVITIDTNSTLDQPSSRSSQQMAALRQVASLNGTSSSPIYGKVDTARMGVMGWSMGGGGSLISAANNPSLKAAAPQAPWVSSTNFSSVTVPTLIFACENDSIAPVNSSALPIYDSMSRNAKQFLEINGGSHSCANSGNSNQALIGKKGVAWMKRFMDNDTRYSTFACENPNSTRVSDFRTANCS | µM | 2.4 |
| unnamed (protein) MNFPRASRLMQAAVLGGLMAVSAAATAQTNPYARGPNPTAASLEASAGPFTVRSFTVSRPSGYGAGTVYYPTNAGGTVGAIAIVPGYTARQSSIKWWGPRLASHGFVVITIDTNSTLDQPDSRSSQQMAALRQVASLNGTSSSPIYGKVDTARMGVMGWSMGGGGSLISAANNPSLKAAAAQAPWHSSTNFSSVTVPTLIFACENDSIAPVNSSALPIYDSMSRNAKQFLEINGGSHSCANSGNSNQALIGKKGVAWMKRFMDNDTRYSTFACENPNSTRVSDFRTANCS | µM | 13.4 |

Input line: For the protein shown here, unnamed (protein) MNFPRASRLMQAAVLGGLMAVSAAATAQTNPYARGPNPTAASLEASAGPFTVRSFTVSRPSGYGAGTVYYPTNAGGTVGAIAIVPGYTARQSSIKWWGPRLASHGFVVITIDTNSTLDQPSSRSSQQMAALRQVASLNGTSSSPIYGKVDTARMGVMGWSMGGGGSLISAANNPSLKAAASQAPWDSSTNFSSVTVPTLIFACENDSIAPVNSSALPIYDSMSRNAKQFLEINGGSHSCANSGNSNQALIGKKGVAWMKRFMDNDTRYSTFACENPNSTRVSDFRTANCS , give the reported Proxy for plastic degradation.
Output line: 3.5

Input line: Using the record for unnamed (protein) MNFPRASRLMQAAVLGGLMAVSAAATAQTNPYARGPNPTAASLEASAGPFTVRSFTVSRPSGYGAGTVYYPTNAGGTVGAIAIVPGYTARQSSIKWWGPRLASHGFVVITIDTNSTLDQPSSRSSQQMAALRQVASLNGTSSSPIYGKVDTARMGVMGWSMGGGGSLISAANNPSLKAAAPQAPWFSSTNFSSVTVPTLIFACENDSIAPVNSSALPIYDSMSRNAKQFLEINGGSHSCANSGNSNQALIGKKGVAWMKRFMDNDTRYSTFACENPNSTRVSDFRTANCS , report its Proxy for plastic degradation.
Output line: 6

Input line: I have this protein here, unnamed (protein) MNFPRASRLMQAAVLGGLMAVSAAATAQTNPYARGPNPTAASLEASAGPFTVRSFTVSRPSGYGAGTVYYPTNAGGTVGAIAIVPGYTARQSSIKWWGPRLASHGFVVITIDTNSTLDQPSSRSSQQMAALRQVASLNGTSSSPIYGKVDTARMGVMGWSMGGGGSLISAANNPSLKAAAAQAPWDSSTNFSSVTVPTLIFACENDSIAPVNSSALPIYDSMSRNAKQFLEINGGSHSCANSGNSNQALIGKKGVAWMKRFMDNDTRYSTFACENPNSTRVSDFRTANCS , and I need its recorded Proxy for plastic degradation.
Output line: 4.2
